Tested on: MALME-3M melanoma
Assay: NCI tumour cell line growth inhibition, 48 h; in the data active = GI50 below about 0.43 µM; inactive = the rest
Labels: TRUE (active), FALSE (inactive)

{"columns": ["compound", "target or test system", "category"],
 "data": [
  ["COc1ccc2c(c1)C(=O)c1c-2c(OCCN(C)C)nc2cc(OC)c(OC)cc12", "MALME-3M melanoma", "FALSE"],
  ["COc1cc(-c2nn(-c3cccc(NC(=O)CCNc4ccc(N5CCOCC5)cc4)c3)cc2-c2ccncc2)ccc1Cl", "MALME-3M melanoma", "FALSE"],
  ["CC(O)[C@H](NC(=O)N[C@@H](CC(N)=O)c1nc(N2CCNCC2)no1)C(=O)O (stereo partly specified)", "MALME-3M melanoma", "FALSE"],
  ["COc1ccc(C2=Nn3c(nnc3-n3nc(C)cc3C)SC2)cc1", "MALME-3M melanoma", "TRUE"],
  ["CN(C)c1ccc(C(O)C2=CC(=O)c3ccccc3C2=O)cc1 (stereo unspecified)", "MALME-3M melanoma", "FALSE"],
  ["COCC(C(=O)OC1C/C=C/C=C/C(=O)OC(C(C)C(O)C(C)CCC(OC(=O)C(C)N(C)C)C(C)C(OC(C)=O)C(C)/C=C/N(C)C=O)C/C=C/C(OC)CC(C)C/C=C(\\C)C(OC)CCC(C)C(O)C1C)N(C)C (stereo unspecified)", "MALME-3M melanoma", "TRUE"]
]}

* * *

Tested on: IGROV1 ovarian
Assay: NCI tumour cell line growth inhibition, 48 h
Where a SMILES comes first, the peptide text is derived from it. The star is where a group is joined. Boc = CC(C)(C)OC(=O)*; nBu = CCCC*
Examples of compounds with documented TGI follow.
assay readout: TGI

{"columns": ["compound", "target or test system", "result"],
 "data": [
  ["COc1ccc(COCC[C@H](C)OC2OC(CO)C(O)C(O)C2O)cc1 (some centres undefined)", "IGROV1 ovarian", "> 100 µM"],
  ["CC(C)CC(N)C(=O)NC(C(=O)NC(CCCNC(=N)N)C(=O)NC(CS)C(=O)NC1CSCC(C(=O)NC(Cc2ccccc2)C(=O)NC(C(=O)NC(CCCNC(=N)N)C(=O)O)C(C)C)NC(=O)C2CCCN2C(=O)C(CCCCN)NC(=O)C2CCCN2C(=O)C2CCCN2C(=O)C(Cc2ccc(O)cc2)NC(=O)C(CO)NC(=O)C(CCCCN)NC(=O)C(C(C)O)NC(=O)C(Cc2c[nH]c3ccccc23)NC1=O)C(C)C (centres undefined)", "IGROV1 ovarian", "> 25 µM"],
  ["C=C1C[C@@H]2O[C@H]3[C@H]4[C@@H](CC[C@@](C)(OC(=O)CCC)[C@H]42)[C@@H](C)C(=O)O[C@@]3(C)CC[C@H]1OO", "IGROV1 ovarian", "35.6 µM"],
  ["N#[N+]c1ccc(Nc2ccccc2)cc1", "IGROV1 ovarian", "> 50 µg/mL"],
  ["O=C1Oc2ccccc2C(=O)/C1=C/N1C(=O)CNC1=S", "IGROV1 ovarian", "> 100 µM"],
  ["OCC(O)C(O)C(O)c1nn(-c2ccc(F)cc2)c2nc3cc(Cl)c(Cl)cc3nc12 (centres undefined)", "IGROV1 ovarian", "63.6 µM"],
  ["CCCCOC/N=C(/N)NC#N", "IGROV1 ovarian", "> 100 µM"],
  ["COc1ccc2nc3ccc(OC)cc3c(SCCCl)c2c1", "IGROV1 ovarian", "> 100 µM"],
  ["CN(N=O)c1nc2c(C(N)=O)ncn2s1", "IGROV1 ovarian", "> 100 µM"],
  ["COCC(C(=O)OC1C/C=C/C=C/C(=O)OC(C(C)C(O)C(C)CCC(OC(=O)C(C)N(C)C)C(C)C(OC(C)=O)C(C)/C=C/N(C)C=O)C/C=C/C(OC)CC(C)C/C=C(\\C)C(OC)CCC(C)C(O)C1C)N(C)C (centres undefined)", "IGROV1 ovarian", "0.0144 µM"],
  ["CC(C)(O)c1cc2c(cc1C(C)(C)O)-c1ccccc1-2", "IGROV1 ovarian", "> 100 µM"],
  ["CN(CCc1ccccn1)c1ccc2c(c1)C(=O)c1ccccc1-2", "IGROV1 ovarian", "> 100 µM"],
  ["COc1cc2c(c(OC)c1OC)C(=O)NCCC2", "IGROV1 ovarian", "> 100 µM"],
  ["CCCCOc1ccc(CC(NC(=O)OC(C)(C)C)C(=O)NC(C)C(=O)NC(Cc2ccccc2)C(=O)NCC(N)=O)cc1 (centres undefined) (Boc-Y(nBu)AFG-NH2; configuration not given here)", "IGROV1 ovarian", "> 100 µM"],
  ["CCOC(=O)c1c[nH]c(C(=O)C=[N+]=[N-])c1C1CCN(CC)C1=S (centres undefined)", "IGROV1 ovarian", "> 100 µM"],
  ["Cc1cn(C2CC(N=[N+]=[N-])C(COP(=O)(O)OCC3OC(n4cc(F)c(=O)[nH]c4=O)CC3O)O2)c(=O)[nH]c1=O (centres undefined)", "IGROV1 ovarian", "9.57 µM"],
  ["CC1(C)OC(=O)C(=C2CCC(C(=O)Nc3cccc(C(F)(F)F)c3)N2)C(=O)O1 (centres undefined)", "IGROV1 ovarian", "> 100 µM"],
  ["CS(=O)(=O)Nc1cc(-c2ccc3ncnc(Nc4cccc(Cl)c4)c3c2)cnc1Cl", "IGROV1 ovarian", "0.476 µM"],
  ["O=[N+]([O-])c1ccc(N=Nc2c(O)[nH]c3ccccc23)c([N+](=O)[O-])c1", "IGROV1 ovarian", "24.2 µM"],
  ["O=CN1N=C(c2cccc(Nc3ccnc4cc(Cl)ccc34)c2)CC1c1ccc(Cl)cc1 (centres undefined)", "IGROV1 ovarian", "> 100 µM"],
  ["COC(=O)C(=O)Nc1cc2c3c(c1)Oc1cccc4c1C3(C)c1c(cccc1O2)O4", "IGROV1 ovarian", "> 100 µM"],
  ["COc1ccc(Br)c(C(=O)N2CCc3ccccc32)c1N", "IGROV1 ovarian", "> 100 µM"],
  ["CCOC(=O)[C@@H]1CSC(CC)=C(C(=O)O)N1", "IGROV1 ovarian", "> 100 µM"],
  ["Cc1sc2nc3n(c(=O)c2c1C)N=CN(c1ccc(Cl)cc1)C3", "IGROV1 ovarian", "> 100 µM"],
  ["CC1(C)N=C(N)N=C(N)N1c1cccc(CCc2ccccc2)c1", "IGROV1 ovarian", "17.6 µM"],
  ["CCOC(=O)C(=CNc1ccc(F)c(F)c1)C(=O)OCC", "IGROV1 ovarian", "> 100 µM"],
  ["O=C1OC(=O)C([Se]c2ccccc2)=C1[Se]c1ccccc1", "IGROV1 ovarian", "> 100 µM"],
  ["COc1cc(-c2nn(-c3cccc(NC(=O)CCNc4ccc(N5CCOCC5)cc4)c3)cc2-c2ccncc2)ccc1Cl", "IGROV1 ovarian", "> 100 µM"],
  ["Cc1ccc(S(=O)(=O)N2CCSCCSCCSCCN(S(=O)(=O)c3ccc(C)cc3)CC2)cc1", "IGROV1 ovarian", "> 100 µM"]
]}

Cited source for all entries: PubChem BioAssay (NCI)
